# experimental-target: GST-Dm-Relish (Drosophila melanogaster, UniProt Q94527 99-473)
# Sequence: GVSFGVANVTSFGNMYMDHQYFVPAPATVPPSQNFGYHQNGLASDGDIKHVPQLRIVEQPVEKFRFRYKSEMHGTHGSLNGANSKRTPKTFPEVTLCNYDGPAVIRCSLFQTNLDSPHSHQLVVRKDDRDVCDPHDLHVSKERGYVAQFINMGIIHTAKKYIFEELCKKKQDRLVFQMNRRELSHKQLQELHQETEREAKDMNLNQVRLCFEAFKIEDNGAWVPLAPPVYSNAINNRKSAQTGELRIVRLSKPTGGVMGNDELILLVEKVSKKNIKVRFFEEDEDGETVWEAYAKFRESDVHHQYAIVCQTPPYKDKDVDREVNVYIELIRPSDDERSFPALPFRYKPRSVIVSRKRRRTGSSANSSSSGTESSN
# assay: protein-binding microarray (PBM); PBM: ~300 nM protein, 6 mM HEPES pH 7.8, 80 mM KCl, 0.5 mM EDTA, 0.5 mM EGTA, 6% glycerol, 35 ng/ul poly-dIdC, 1% milk, 1 h, room temperature; Ap Aiptasia and Nv Nematostella (sea anemones) / Co Capsaspora / Aq Amphimedon (sponge) / Dm Drosophila / Hu human; RHD is the Rel homology domain; high values mean tight binding
# stated-conditions: dsDNA, one strand shown
outcome-measure: binding signal (z-score)
// units = z-score; emit number, no label

Worked cases, binding signal given:
>  <record-sequence>
CCGATTAACATCAGGGAATTCCATGATGTTAATCGGGTCTTGATTCGCTTGACGCTGCTG

>  <endpoint-result>
7.15

$$$$
>  <record-sequence>
CCGATTAACATCAAAAATTTTCCTGATGTTAATCGGGTCTTGATTCGCTTGACGCTGCTG

>  <endpoint-result>
2.62

$$$$

Identify binding signal associated with the sequence CCGATTAACATCAGGGGAAACACTGATGTTAATCGGGTCTTGATTCGCTTGACGCTGCTG 9.02

Identify binding signal associated with the sequence CCGATTAACATCAAATACTTCCCTGATGTTAATCGGGTCTTGATTCGCTTGACGCTGCTG 2.69

Identify binding signal associated with the sequence CCGATTAACATCAGGGATTGCCCTGATGTTAATCGGGTCTTGATTCGCTTGACGCTGCTG 5.25

Identify binding signal associated with the sequence CCGATTAACATCAAAAAACTCCCTGATGTTAATCGGGTCTTGATTCGCTTGACGCTGCTG 7.13

Identify binding signal associated with the sequence CCGATTAACATCACATTCTCCCCTGATGTTAATCGGGTCTTGATTCGCTTGACGCTGCTG 1.55

Identify binding signal associated with the sequence CCGATTAACATCAGGGAGATCCCTGATGTTAATCGGGTCTTGATTCGCTTGACGCTGCTG 7.36

Identify binding signal associated with the sequence CCGATTAACATCAGGAAAGGCCCTGATGTTAATCGGGTCTTGATTCGCTTGACGCTGCTG 5.48

The reported measurements were obtained from paper PMC5700166.
